- TEST PROTOCOL: HepG2 cytotoxicity, primary screen, cytotoxicity control for P. falciparum antimalarial project, cell-based, ATP luminescence (AID 2303);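 also: 0% = DMSO wells and 100% = digitonin-killed cells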
- EXPERIMENTAL CONDITIONS: HepG2 viability, 24-48 h, at 10 µM, hits give high values
What inhibition was measured for each of the following?
Quick reminder: number only, in %, skip the unit.

-- ask Tell me inhibition reported for CCOC(=O)NCCSC(C)(C)[C@H](NC(=O)[C@H](Cc1cc2ccccc2s1)[C@H](CC)N(O)C=O)C(=O)Nc1nccs1
-- reply 11

-- ask Tell me inhibition reported for COc1ccc(-c2c(-c3ccc(OCc4ccccc4)cc3O)n[nH]c2C(F)(F)F)cc1
-- reply 49

-- ask Tell me inhibition reported for COc1ccc(-c2nc(NC(=O)Cc3coc4cc(OC)ccc34)sc2C)cc1
-- reply 9

-- ask Tell me inhibition reported for Nc1nccc2ccc(-c3ccncc3)cc12
-- reply 19

-- ask Tell me inhibition reported for CC1(C)N=C(N)N=C(N)N1OCCCc1c(Cl)cccc1Cl
-- reply 71

-- ask Tell me inhibition reported for COc1ccc2c(NN=CC=Cc3ccccc3)ccnc2c1
-- reply 9

-- ask Tell me inhibition reported for Cc1cccc2[nH]c(-c3cccc(-c4cccc(CNCC5CCCO5)c4)c3)nc12 (stereo not given)
-- reply 26

-- ask Tell me inhibition reported for CN1CCN(c2ccnc3ccc(NC(=O)Nc4ccc(-c5ccncc5)c(C(F)(F)F)c4)cc23)CC1
-- reply 12

-- ask Tell me inhibition reported for O=c1cc(NCCCNCc2ccc(Cl)c(Cl)c2)[nH]c2cc(F)cc(F)c12
-- reply 11

-- ask Tell me inhibition reported for OC(CNCc1ccco1)Cn1c2ccc(Br)cc2c2cc(Br)ccc21 (stereo not given)
-- reply 10

# credit: PubChem BioAssay
